Listed next: entries and their corresponding LACTATE DEHYDROGENASE.
- Species on record: Rattus norvegicus
- measurement-protocol: DrugMatrix - Regimen: Daily Repeat
- Assay type: toxicity, organism-based, Sprague-Dawley
- Parameters: regimen Daily Repeat, gender Male, age 6-8 weeks
- condition-parameters: in vivo, po, 0 mg/kg, 120 h, tissue Plasma, route oral GAVAGE, dose level Control, time 5 day, vehicle .5 % CMC
Returns: string containing the numeric result and its unit.

Completed entries (count: 6):
compound: CCN1CCCC1CNC(=O)c1cc(S(N)(=O)=O)ccc1OC (configuration not stated) [SULPIRIDE]
obs-value: 153.67 u/L
//
compound: NC(=O)NC(=O)Cc1ccccc1 [PHENACEMIDE]
obs-value: 85.33 u/L
//
compound: CC(=O)Nc1ccc2c(c1)Cc1ccccc1-2
obs-value: 517.33 u/L
//
compound: CN(C)CCOC(c1ccccc1)c1ccccc1.Cn1c(=O)c2[nH]c(Cl)nc2n(C)c1=O [DIMENHYDRINATE]
obs-value: 146.5 u/L
//
compound: Cl.NC[C@H]1CC[C@H](C(=O)Oc2ccc(CCC(=O)O)cc2)CC1 [CETRAXATE HYDROCHLORIDE]
obs-value: 259.67 u/L
//
compound: CC(C)(C#N)c1cc(Cn2cncn2)cc(C(C)(C)C#N)c1
obs-value: 90.5 u/L

# ---- query compound ----
Could you please provide reported LACTATE DEHYDROGENASE for `NC(=O)CN1CCCC1=O` ? Thanks! 500.5 u/L

----------
- Organism: Rattus norvegicus
- measurement-protocol: DrugMatrix - Regimen: Daily Repeat
- Format: toxicity, organism-based, Sprague-Dawley
- Parameters: regimen Daily Repeat, gender Male, age 6-8 weeks
- condition-parameters: in vivo, po, 0 mg/kg, 72 h, tissue Plasma, route oral GAVAGE, dose level Control, time 3 day, […]
Listed next: entries and their corresponding ALBUMIN.
Returns: string containing the numeric result and its unit.

compound: COC(=O)Nc1nc2ccc(C(=O)c3ccccc3)cc2[nH]1
ALBUMIN: 3.97 G/DL

compound: O=C(O)COC(=O)Cc1ccccc1Nc1c(Cl)cccc1Cl
ALBUMIN: 3.97 G/DL

compound: CC#C[C@]1(O)CC[C@H]2[C@@H]3CCC4=CC(=O)CCC4=C3[C@@H](c3ccc(N(C)C)cc3)C[C@@]21C
ALBUMIN: 4.02 G/DL

# ---- query compound ----
Could you please provide reported ALBUMIN for O=C(Nc1ccc(Cl)c(Cl)c1)c1cc(Cl)cc(Cl)c1O [3,3',4',5-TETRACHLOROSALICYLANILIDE] ? Thanks! 4.03 G/DL

----------
- Species on record: Rattus norvegicus
- measurement-protocol: DrugMatrix - Regimen: Daily Repeat
- Type: toxicity, organism-based, Sprague-Dawley
- Parameters: regimen Daily Repeat, gender Male, age 6-8 weeks
- condition-parameters: in vivo, po, 0 mg/kg, 72 h, tissue Plasma, route oral GAVAGE, dose level Control, time 3 day, vehicle 100 % WATER
Listed next: entries and their corresponding BLOOD UREA NITROGEN.
Give the quantity in mg/dL, number only.

Completed entries (count: 3):
compound: Cc1cc(C(C)(C)C)c(O)c(C)c1CC1=NCCN1
measurement-unit: mg/dL
BLOOD UREA NITROGEN: 14.67
//
compound: CC(Cl)(Cl)Cl
measurement-unit: mg/dL
BLOOD UREA NITROGEN: 15.83
//
compound: NN [HYDRAZINE]
measurement-unit: mg/dL
BLOOD UREA NITROGEN: 16.5

Could you please provide reported BLOOD UREA NITROGEN for `C[N+](C)(C)CCOC(N)=O.[Cl-]` ? Thanks! 12.83

Could you please provide reported BLOOD UREA NITROGEN for `CCC1(c2ccccc2)C(=O)NC(=O)NC1=O` ? Thanks! 13.17

Could you please provide reported BLOOD UREA NITROGEN for `CN1C(=O)OC(C)(C)C1=O` ? Thanks! 14.67

Could you please provide reported BLOOD UREA NITROGEN for `C1CCN2C[C@@H]3C[C@@H](CN4CCCC[C@@H]34)[C@H]2C1` ? Thanks! 15.83

Could you please provide reported BLOOD UREA NITROGEN for `CCN(CC)C(=S)SSC(=S)N(CC)CC` ? Thanks! 12.67

Could you please provide reported BLOOD UREA NITROGEN for `Cc1cn([C@H]2C=C[C@@H](CO)O2)c(=O)[nH]c1=O` ? Thanks! 12.83

----------
- Organism: Rattus norvegicus
- measurement-protocol: DrugMatrix - Regimen: Daily Repeat
- Assay type: toxicity, organism-based, Sprague-Dawley
- Parameters: regimen Daily Repeat, gender Male, age 6-8 weeks
- condition-parameters: in vivo, po, 0 mg/kg, 72 h, tissue Plasma, route oral GAVAGE, dose level Control, time 3 day, […]
Listed next: entries and their corresponding CREATINE PHOSPHOKINASE.
Returns: string containing the numeric result and its unit.

compound: CC(C)(c1ccc(O)cc1)c1ccc(O)cc1 [BISPHENOL A]
obs-value: 312.33 u/L
//
compound: COc1ccccc1OCCNCC(O)COc1cccc2[nH]c3ccccc3c12 (centres undefined) [CARVEDILOL]
obs-value: 367.67 u/L
//
compound: CC#C[C@]1(O)CC[C@H]2[C@@H]3CCC4=CC(=O)CCC4=C3[C@@H](c3ccc(N(C)C)cc3)C[C@@]21C [MIFEPRISTONE]
obs-value: 268.33 u/L

Could you please provide reported CREATINE PHOSPHOKINASE for O=C(Nc1ccc(Cl)c(Cl)c1)c1cc(Cl)cc(Cl)c1O [3,3',4',5-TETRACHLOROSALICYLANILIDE] ? Thanks! 292.5 u/L

Could you please provide reported CREATINE PHOSPHOKINASE for CS(=O)(=O)c1ccc(C2=C(c3ccccc3)C(=O)OC2)cc1 [ROFECOXIB] ? Thanks! 253.33 u/L

Could you please provide reported CREATINE PHOSPHOKINASE for Oc1ncnc2[nH]ncc12 [ALLOPURINOL] ? Thanks! 729.17 u/L

Could you please provide reported CREATINE PHOSPHOKINASE for COC(=O)Nc1nc2ccc(C(=O)c3ccccc3)cc2[nH]1 [MEBENDAZOLE] ? Thanks! 367.67 u/L

Could you please provide reported CREATINE PHOSPHOKINASE for `CO[C@H]1O[C@@H]2O[C@@]3(C)CC[C@H]4[C@H](C)CC[C@@H]([C@H]1C)[C@@]24OO3` ? Thanks! 398 u/L

Could you please provide reported CREATINE PHOSPHOKINASE for Cc1cccc(C)c1NC(=O)C(C)N (centres undefined) [TOCAINIDE] ? Thanks! 410.33 u/L

----------
- Species on record: Rattus norvegicus
- measurement-protocol: DrugMatrix - Regimen: Daily Repeat
- Type: toxicity, organism-based, Sprague-Dawley
- Parameters: regimen Daily Repeat, gender Male, age 6-8 weeks
- condition-parameters: in vivo, po, 0 mg/kg, 120 h, tissue Blood, route oral GAVAGE, dose level Control, time 5 day, vehicle .5 % CMC
Entries whose EOSINOPHIL is below 0.2% take 1.0; entries at or above 0.2% take 0.0.

Consider the worked cases shown below.
compound: CCN1C[C@]2(COC)[C@H](O)C[C@H](OC)[C@@]34[C@@H]5C[C@@]6(O)[C@H](OC(=O)c7ccccc7)[C@@H]5[C@@](OC(C)=O)([C@@H]([C@H](OC)[C@H]23)[C@@H]14)[C@@H](O)[C@@H]6OC
group: 0.0

compound: O=C1c2ccccc2C(=O)C1c1ccccc1
group: 0.0

compound: Cl.NC[C@H]1CC[C@H](C(=O)Oc2ccc(CCC(=O)O)cc2)CC1 [CETRAXATE HYDROCHLORIDE]
group: 0.0

compound: CC(C)NCC(O)COc1ccc(CC(N)=O)cc1 (configuration not stated)
group: 1.0

compound: CN(C)CCOC(c1ccccc1)c1ccccc1.Cn1c(=O)c2[nH]c(Cl)nc2n(C)c1=O [DIMENHYDRINATE]
group: 0.0

compound: NC(=O)CN1CCCC1=O
group: 0.0

compound: NCC(CC(=O)O)c1ccc(Cl)cc1 (configuration not stated)
group: 0.0

compound: O=C(O)CCc1nc(-c2ccccc2)c(-c2ccccc2)o1
group: 1.0

Please state whether EOSINOPHIL is below 0.2% for NC(=O)NC(=O)Cc1ccccc1 [PHENACEMIDE] 1.0

Please state whether EOSINOPHIL is below 0.2% for COc1cc(NC(C)CCCN)c2ncccc2c1 (configuration not stated) 1.0

Please state whether EOSINOPHIL is below 0.2% for CCOc1cc(N)c(Cl)cc1C(=O)NCC1CN(Cc2ccc(F)cc2)CCO1 (configuration not stated) [MOSAPRIDE] 0.0

Please state whether EOSINOPHIL is below 0.2% for COc1ccc(Cl)cc1C(=O)NCCc1ccc(S(=O)(=O)NC(=O)NC2CCCCC2)cc1 [GLYBURIDE] 1.0

Taken from ChEMBL document CHEMBL3885881.
